biological target: Phosphatidylinositol 4,5-bisphosphate 3-kinase catalytic subunit gamma isoform (Homo sapiens, UniProt P48736); test: Inhibition of PI3Kgamma (unknown origin) using PIP2 as substrate incubated for 1 hr in presence of ATP by ADP-Glo assay
Sequence (P48736 whole entry, canonical isoform): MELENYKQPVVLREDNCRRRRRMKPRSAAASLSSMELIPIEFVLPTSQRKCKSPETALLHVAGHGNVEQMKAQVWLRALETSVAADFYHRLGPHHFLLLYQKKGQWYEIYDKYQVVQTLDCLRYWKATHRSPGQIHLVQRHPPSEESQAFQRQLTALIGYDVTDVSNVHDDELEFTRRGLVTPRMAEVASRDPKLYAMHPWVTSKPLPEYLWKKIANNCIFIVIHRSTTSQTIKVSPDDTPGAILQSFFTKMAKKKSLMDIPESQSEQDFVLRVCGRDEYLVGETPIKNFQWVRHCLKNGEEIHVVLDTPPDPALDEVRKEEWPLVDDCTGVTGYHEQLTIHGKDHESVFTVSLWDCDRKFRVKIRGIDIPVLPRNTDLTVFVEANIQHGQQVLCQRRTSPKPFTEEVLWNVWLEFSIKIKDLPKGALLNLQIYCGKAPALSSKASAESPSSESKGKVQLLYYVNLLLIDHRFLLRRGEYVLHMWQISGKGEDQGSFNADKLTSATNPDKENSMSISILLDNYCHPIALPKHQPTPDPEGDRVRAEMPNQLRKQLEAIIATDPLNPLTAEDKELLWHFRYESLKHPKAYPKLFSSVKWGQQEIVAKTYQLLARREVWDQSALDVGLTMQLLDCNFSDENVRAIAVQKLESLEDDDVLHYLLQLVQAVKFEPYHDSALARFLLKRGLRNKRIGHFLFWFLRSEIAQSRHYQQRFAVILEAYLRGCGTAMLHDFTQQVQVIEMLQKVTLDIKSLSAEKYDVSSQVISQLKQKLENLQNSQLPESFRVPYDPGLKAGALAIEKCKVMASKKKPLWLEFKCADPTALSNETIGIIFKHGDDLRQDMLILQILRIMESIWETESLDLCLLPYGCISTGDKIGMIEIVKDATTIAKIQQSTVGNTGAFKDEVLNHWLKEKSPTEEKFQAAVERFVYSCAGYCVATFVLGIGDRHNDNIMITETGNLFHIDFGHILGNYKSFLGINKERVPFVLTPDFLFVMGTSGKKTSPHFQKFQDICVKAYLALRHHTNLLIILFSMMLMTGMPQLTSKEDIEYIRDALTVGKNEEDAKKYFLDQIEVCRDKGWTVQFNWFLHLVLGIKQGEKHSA
pIC50: −log10 of the molar value.
REPORTED_METRIC: pIC50

[Q] I would be grateful if you could share the reported pIC50 for C[C@H](Nc1nc(N)nc(N)c1C#N)c1nn(-c2cccc(S(C)(=O)=O)c2)c2cc(Cl)ccc12 .
[A] < 6.00

[Q] Form field: reported pIC50 of C[C@H](Nc1nc(N)nc(N)c1C#N)c1nn(-c2cccnc2)c2cc(Cl)ccc12
[A] 6.56

Proceed to the following item.
[Q] Give its pIC50 value. Item: CC[C@H](Nc1nc(N)nc(N)c1C#N)c1nn(-c2cccnc2)c2cc(Cl)ccc12
[A] < 6.00

###

target: Phosphatidylinositol 4,5-bisphosphate 3-kinase catalytic subunit alpha isoform (Homo sapiens, UniProt P42336); experiment: Inhibition of PI3Kalpha (unknown origin) using PIP2 as substrate incubated for 1 hr in presence of ATP by ADP-Glo assay
Sequence (P42336 whole entry, canonical isoform): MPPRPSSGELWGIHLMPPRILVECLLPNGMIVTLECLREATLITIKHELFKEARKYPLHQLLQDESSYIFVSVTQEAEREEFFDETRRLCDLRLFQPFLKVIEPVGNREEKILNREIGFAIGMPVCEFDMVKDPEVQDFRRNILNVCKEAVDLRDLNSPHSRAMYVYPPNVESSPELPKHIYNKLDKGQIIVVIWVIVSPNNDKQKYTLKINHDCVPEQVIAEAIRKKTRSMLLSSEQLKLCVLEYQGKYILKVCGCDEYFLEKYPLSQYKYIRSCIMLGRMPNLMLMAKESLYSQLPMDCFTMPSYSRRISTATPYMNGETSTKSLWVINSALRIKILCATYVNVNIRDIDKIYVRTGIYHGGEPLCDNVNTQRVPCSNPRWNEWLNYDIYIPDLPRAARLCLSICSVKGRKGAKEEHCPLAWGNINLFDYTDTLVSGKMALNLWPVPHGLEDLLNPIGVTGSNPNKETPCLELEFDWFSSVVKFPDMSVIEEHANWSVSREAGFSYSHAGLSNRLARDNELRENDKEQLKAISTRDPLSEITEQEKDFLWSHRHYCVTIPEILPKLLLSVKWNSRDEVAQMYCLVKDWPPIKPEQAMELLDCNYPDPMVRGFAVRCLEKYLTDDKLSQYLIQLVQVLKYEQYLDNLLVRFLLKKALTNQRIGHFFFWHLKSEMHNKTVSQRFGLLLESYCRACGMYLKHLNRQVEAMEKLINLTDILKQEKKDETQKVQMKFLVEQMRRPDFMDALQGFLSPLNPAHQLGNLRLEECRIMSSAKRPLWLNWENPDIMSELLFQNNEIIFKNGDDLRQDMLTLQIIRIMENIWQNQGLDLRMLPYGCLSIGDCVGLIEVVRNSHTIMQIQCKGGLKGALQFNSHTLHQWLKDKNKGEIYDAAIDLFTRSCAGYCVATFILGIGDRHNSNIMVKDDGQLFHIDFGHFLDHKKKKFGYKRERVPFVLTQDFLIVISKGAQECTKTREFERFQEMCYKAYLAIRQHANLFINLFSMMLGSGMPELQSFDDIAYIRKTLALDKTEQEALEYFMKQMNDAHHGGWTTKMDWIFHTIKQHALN
pIC50: −log10 of the molar value.
REPORTED_METRIC: pIC50

[Q] Value lookup for pIC50; key = CC[C@H](Nc1nc(N)nc(N)c1C#N)c1nn(-c2cccnc2)c2cc(Cl)ccc12
[A] 6.24

[Q] Name the reported pIC50 value associated with the compound C[C@H](Nc1nc(N)nc(N)c1C#N)c1nn(-c2cccc(S(C)(=O)=O)c2)c2cc(Cl)ccc12
[A] < 6.00

For the next question, use this compound.
[Q] What value of measured pIC50 is listed for C[C@H](Nc1nc(N)nc(N)c1C#N)c1nn(-c2cccnc2)c2cc(Cl)ccc12 ?
[A] < 6.00

###

Target: Phosphatidylinositol 4,5-bisphosphate 3-kinase catalytic subunit delta isoform (Homo sapiens)
Sequence (O00329 whole entry): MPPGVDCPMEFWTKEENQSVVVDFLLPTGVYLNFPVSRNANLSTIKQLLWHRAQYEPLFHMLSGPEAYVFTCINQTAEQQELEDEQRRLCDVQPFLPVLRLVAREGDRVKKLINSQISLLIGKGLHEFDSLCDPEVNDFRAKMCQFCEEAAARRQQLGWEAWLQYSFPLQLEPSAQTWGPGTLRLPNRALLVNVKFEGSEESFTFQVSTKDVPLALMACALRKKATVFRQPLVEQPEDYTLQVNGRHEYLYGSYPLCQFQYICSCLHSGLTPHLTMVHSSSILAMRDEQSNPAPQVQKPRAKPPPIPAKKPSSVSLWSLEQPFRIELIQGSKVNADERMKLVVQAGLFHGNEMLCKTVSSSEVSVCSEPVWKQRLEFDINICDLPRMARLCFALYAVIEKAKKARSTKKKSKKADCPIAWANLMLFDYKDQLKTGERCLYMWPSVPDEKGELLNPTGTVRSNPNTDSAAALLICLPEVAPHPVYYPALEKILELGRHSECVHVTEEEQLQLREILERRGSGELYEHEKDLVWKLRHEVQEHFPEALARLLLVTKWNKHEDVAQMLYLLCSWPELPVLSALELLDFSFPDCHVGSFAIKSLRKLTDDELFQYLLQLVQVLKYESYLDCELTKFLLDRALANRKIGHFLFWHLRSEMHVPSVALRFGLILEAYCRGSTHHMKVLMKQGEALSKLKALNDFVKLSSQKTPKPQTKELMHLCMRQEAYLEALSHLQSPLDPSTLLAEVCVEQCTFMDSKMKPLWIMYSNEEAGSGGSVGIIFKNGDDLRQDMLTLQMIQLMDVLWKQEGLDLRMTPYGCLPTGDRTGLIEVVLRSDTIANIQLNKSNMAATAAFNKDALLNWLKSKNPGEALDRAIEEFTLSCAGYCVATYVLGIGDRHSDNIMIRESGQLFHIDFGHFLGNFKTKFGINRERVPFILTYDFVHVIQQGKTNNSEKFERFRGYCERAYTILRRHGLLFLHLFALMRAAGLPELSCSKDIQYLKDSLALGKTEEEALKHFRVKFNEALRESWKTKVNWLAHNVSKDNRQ
Assay: Inhibition of PI3Kdelta (unknown origin) using PIP2 as substrate incubated for 1 hr in presence of ATP by ADP-Glo assay
Entries are grouped by IC50 into these classes: bin 1 (below 8 nM), bin 2 (8 nM to below 100 nM), bin 3 (100 nM or more)

[Q] Assign a bin to C[C@H](Nc1ncnc2[nH]cnc12)c1nn(-c2cccnc2)c2cc(Cl)ccc12
[A] bin 1

[Q] Which bin, given its IC50, does CC[C@H](Nc1nc(N)nc(N)c1C#N)c1nn(-c2cccnc2)c2cc(Cl)ccc12 occupy?
[A] bin 1

[Q] Please let me know in which category the item C[C@H](Nc1nc(N)nc(N)c1C#N)c1nn(-c2cccnc2)c2cc(F)ccc12 belongs.
[A] bin 1

[Q] Which bin should I file C[C@H](Nc1ncnc2[nH]cnc12)c1nn(-c2cccnc2)c2ccccc12 under?
[A] bin 2

[Q] Form: Item = CC(C)[C@H](Nc1ncnc2[nH]cnc12)c1nn(-c2cccnc2)c2cc(F)ccc12 ; Class = ?
[A] bin 2

[Q] Which category does the recorded IC50 put C[C@H](Nc1nc(N)nc(N)c1C#N)c1nn(-c2ccncc2)c2cc(F)ccc12 in?
[A] bin 1

[Q] Textbook exercise: identify the category of the compound given here, C[C@H](Nc1ncccc1C#N)c1nn(-c2cccnc2)c2cc(F)ccc12 , according to its measured value.
[A] bin 3

[Q] Could you place C[C@H](Nc1ncnc2[nH]cnc12)c1nn(-c2ccccn2)c2cc(F)ccc12 in its proper category? Many thanks.
[A] bin 3

***
[Q] Assign a bin to Cc1ccc2c(c1)c([C@H](C)Nc1ncnc3[nH]cnc13)nn2-c1cccnc1
[A] bin 3

[Q] Please report the category associated with C[C@H](Nc1nc(N)nc2[nH]cnc12)c1nn(-c2cccnc2)c2cc(F)ccc12 , nothing else.
[A] bin 2

[Q] Using the reported IC50, which band applies to C[C@H](Nc1ncnc(N)c1C#N)c1nn(-c2cccnc2)c2cc(F)ccc12 ?
[A] bin 2

[Q] Which category fits this record: C[C@H](Nc1ncnc2[nH]cnc12)c1nn(-c2cccnc2)c2cc(F)ccc12
[A] bin 2

[Q] Each compound maps to one class by IC50. Which class for CC(Nc1ncnc2[nH]cnc12)c1nn(-c2cccnc2)c2ccccc12 (racemic) ?
[A] bin 3

[Q] Field: class (IC50) — entry: C[C@H](Nc1ncnc2[nH]cnc12)c1nn(-c2ccc(C#N)cc2)c2cc(F)ccc12
[A] bin 3

[Q] Categorize the following entry: C[C@H](Nc1ncnc2[nH]cnc12)c1nn(-c2cccc(F)c2)c2cc(F)ccc12
[A] bin 3

[Q] Hey, which category is C[C@H](Nc1ncnc2[nH]cnc12)c1nn(-c2cccc(S(C)(=O)=O)c2)c2cc(F)ccc12 in, do you know?
[A] bin 2

[Q] Into which bin does this compound go? C[C@H](Nc1nc(N)nc(N)c1C#N)c1nn(-c2cccc(S(C)(=O)=O)c2)c2cc(F)ccc12
[A] bin 1

[Q] # bin lookup: classify C[C@H](Nc1ncnc2[nH]cnc12)c1nn(-c2ccncc2)c2cc(F)ccc12 by its IC50
[A] bin 2

[Q] Into which bin does this compound go? C[C@H](Nc1nc(N)nc(N)c1C#N)c1nn(-c2cccc(S(C)(=O)=O)c2)c2cc(Cl)ccc12
[A] bin 1

[Q] Hi there! Could you help me figure out the category for C[C@H](Nc1nc(N)nc(N)c1C#N)c1nn(-c2cccnc2)c2cc(C(F)(F)F)ccc12 please?
[A] bin 3

[Q] Note: place this compound into its band. Item: C[C@H](Nc1nc(N)nc(N)c1C#N)c1nn(-c2cccnc2)c2ccccc12
[A] bin 1

[Q] Class (by measured IC50) for CC[C@H](Nc1nc(N)nc(N)c1C#N)c1nn(-c2cccnc2)c2cc(F)ccc12
[A] bin 1

[Q] Please report the category associated with C[C@H](Nc1ncnc2[nH]cnc12)c1nn(-c2cc(F)cc(F)c2)c2cc(F)ccc12 , nothing else.
[A] bin 3

[Q] Band of CC[C@H](Nc1ncnc2[nH]cnc12)c1nn(-c2cccnc2)c2cc(F)ccc12 ?
[A] bin 2

###

test system: Bel-7402; test: cells; details: Homo sapiens, Bel-7402, 72 h, read-out: INH
inhibition at 10 µM vs 10%: at or above is Y, below is N.

[Q] Could you verify whether the entry CC[C@H](Nc1ncnc2[nH]cnc12)c1nc2cccc(F)c2c(=O)n1-c1ccccc1 shows inhibition at 10 µM of no less than 10%?
[A] N

***
[Q] Threshold query (inhibition at 10 µM >= 10%) on C[C@H](Nc1nc(N)nc(N)c1C#N)c1nn(-c2cccc(S(C)(=O)=O)c2)c2cc(F)ccc12
[A] Y

[Q] Quick check: does CC[C@H](Nc1nc(N)nc(N)c1C#N)c1nn(-c2cccnc2)c2cc(F)ccc12 have inhibition at 10 µM greater than or equal to 10%?
[A] Y

[Q] Test whether the compound C[C@H](Nc1nc(N)nc(N)c1C#N)c1nn(-c2cccnc2)c2cc(F)ccc12 records inhibition at 10 µM of 10% or higher.
[A] Y

[Q] Is reported inhibition at 10 µM greater than or equal to 10% here: C[C@H](Nc1nc(N)nc(N)c1C#N)c1nn(-c2cccc(S(C)(=O)=O)c2)c2cc(Cl)ccc12
[A] Y

[Q] Identify whether the reported inhibition at 10 µM of the following compound is 10% or greater: C[C@H](Nc1ncnc2[nH]cnc12)c1nn(-c2cccnc2)c2ccccc12
[A] Y

Numbers sourced from ChEMBL document CHEMBL5154755.
